Tested on: Wolbachia pipientis
Assay: Anti-Wolbachia Cell-Based Screen
Format: functional
Design: scale not given: in the data most compounds retested in dose-response had high values
Settings: 5 µM
Among all 48,000 compounds or so, about 13,000 (27%) showed an effect of 50% or more. Some of the results follow.

>  <molecule>
CNC(=O)CCNC(=O)CCc1c(C)nc2cc(O)nn2c1C

>  <Percent Effect [%]>
99.53

$$$$
>  <molecule>
CNC(=O)CCCNc1cc(C)nc2cc(C)nn12

>  <Percent Effect [%]>
1.816

$$$$
>  <molecule>
CC(C)Cn1cnnc1C1CCCN1C(=O)c1cc2ccccn2c1 (stereo not drawn)

>  <Percent Effect [%]>
-13.41

$$$$
>  <molecule>
Cc1ccccc1C(=O)NC[C@@H]1CCN(C(=O)c2cccn2C)C[C@H]1O

>  <Percent Effect [%]>
2.167

$$$$
>  <molecule>
CN(C)CCOCC1CN(Cc2ccc(F)cc2)Cc2nnn(C)c21.O=C(O)C(F)(F)F.O=C(O)C(F)(F)F (stereo not drawn)

>  <Percent Effect [%]>
94.54

$$$$
>  <molecule>
COc1ccc(CC(C)(O)CNC(=O)Cc2ccc(F)cc2)cc1 (stereo not drawn)

>  <Percent Effect [%]>
8.313

$$$$
>  <molecule>
CC(=O)N(CCc1ccccc1)CC(=O)Nc1ccccc1C#N

>  <Percent Effect [%]>
-7.598

$$$$
>  <molecule>
COCCn1ccc2c(NC(=O)c3n[nH]c4c3CCC4)cccc21

>  <Percent Effect [%]>
97.48

$$$$
>  <molecule>
O=C1NCC2(CCCN(Cc3ccccc3OCCO)C2)O1 (stereo not drawn)

>  <Percent Effect [%]>
-12.98

$$$$
>  <molecule>
COc1ccc(CN2C[C@@H]3COC[C@@H](N4CCN(C)CC4)[C@@H]3C2)cc1.O=C(O)C(F)(F)F.O=C(O)C(F)(F)F.O=C(O)C(F)(F)F

>  <Percent Effect [%]>
13.92

$$$$
>  <molecule>
Cc1cc(C)nc(N2CCCC(c3cccc(-n4ccnc4)n3)C2)n1 (stereo not drawn)

>  <Percent Effect [%]>
122.3

$$$$
>  <molecule>
CCn1c(CN(C)C)nnc1C1CCN(Cc2cccc(C#N)c2)CC1

>  <Percent Effect [%]>
-18.18

$$$$
>  <molecule>
Cc1cc(C)cc(CN2CCN(Cc3ccc4nonc4c3)CC2=O)c1

>  <Percent Effect [%]>
-1.635

$$$$
>  <molecule>
Cc1cccc(CN2CCCC3(Cc4ccccc4CNC3=O)C2)n1 (stereo not drawn)

>  <Percent Effect [%]>
122.4

$$$$
>  <molecule>
COCCn1ccc2c(NC(=O)c3n[nH]c4c3CCCC4)cccc21

>  <Percent Effect [%]>
111.2

$$$$
>  <molecule>
N#Cc1cn(CC(=O)NC2CC2)c2ccc(Br)cc2c1=O

>  <Percent Effect [%]>
-2.411

$$$$
>  <molecule>
Cn1nc(C(=O)NCc2cccc(Cn3ccnc3)c2)ccc1=O

>  <Percent Effect [%]>
-21.54

$$$$
>  <molecule>
c1ccc(-c2cnc(CN3CCn4c(nnc4C4CC4)C3)o2)cc1

>  <Percent Effect [%]>
-9.736

$$$$
>  <molecule>
CCOCCC(=O)NC(c1noc(C)n1)c1ccccc1F (stereo not drawn)

>  <Percent Effect [%]>
-21.83

$$$$
>  <molecule>
Cc1c[nH]c(CN2CCCCC2CCn2ccnc2C)c(C)c1=O (stereo not drawn)

>  <Percent Effect [%]>
-47.12

$$$$
>  <molecule>
COCCn1cc(C(=O)N2CCCC2c2cc(C)on2)c2ccccc21 (stereo not drawn)

>  <Percent Effect [%]>
-11.13

$$$$
>  <molecule>
Cc1c(C2NC3(CCCC3)C(=O)N2CC2CC2)cc(C#N)n1C (stereo not drawn)

>  <Percent Effect [%]>
-11.2

$$$$
>  <molecule>
O=C(c1ccc(Cl)s1)N1CCCn2nc(CN3CC[C@H](F)C3)cc2C1

>  <Percent Effect [%]>
0.8139

$$$$
>  <molecule>
CC(C)Cn1cncc1CNC(=O)c1cccc(-n2cnnc2)c1

>  <Percent Effect [%]>
1.824

$$$$
>  <molecule>
O=C1CC(c2ccc(F)cc2)Cc2[nH]c(=O)c(C(=O)O)cc21 (stereo not drawn)

>  <Percent Effect [%]>
-7.153

$$$$
>  <molecule>
CCC1CC(=O)NCc2nc3sc(C)cn3c21 (stereo not drawn)

>  <Percent Effect [%]>
11.81

$$$$
>  <molecule>
CNS(=O)(=O)c1cccc(C(C)NCc2ccc(C)c(C)c2)c1 (stereo not drawn)

>  <Percent Effect [%]>
-2.241

$$$$
>  <molecule>
CN(C)C(=O)NCc1nnc2n1CCN(Cc1ccsc1)C2

>  <Percent Effect [%]>
3.865

$$$$
>  <molecule>
O=C(O)C(F)(F)F.O=C(c1ccncc1)N1CCc2ncnc(C3CC3)c2CC1

>  <Percent Effect [%]>
-7.83

$$$$
>  <molecule>
CCN(c1ccc(C(=O)Nc2c(C)nn(C(C)C)c2C)cc1)C(C)C

>  <Percent Effect [%]>
-6.116

$$$$
>  <molecule>
CCOc1cc([C@@H]2N[C@H](c3nccs3)Cc3ccsc32)ccc1OC

>  <Percent Effect [%]>
100.4

$$$$
>  <molecule>
C=C(C)COc1ccc(C(=O)NCC2CC(CC)=NO2)cc1 (stereo not drawn)

>  <Percent Effect [%]>
5.055

$$$$
>  <molecule>
O=C(NCc1ccc(C(=O)N2CCCC2)cc1)c1cn2c(n1)CNCC2

>  <Percent Effect [%]>
-4.939

$$$$
>  <molecule>
COc1ccnc(N2CCN(C(C)c3nc(C)no3)CC2)n1 (stereo not drawn)

>  <Percent Effect [%]>
-3.819

$$$$
>  <molecule>
CCS(=O)(=O)N1Cc2nnn(C)c2C(COCCN(C)C)C1.O=C(O)C(F)(F)F (stereo not drawn)

>  <Percent Effect [%]>
7.645

$$$$
>  <molecule>
Cc1cc(CNc2cncc(C(=O)N(C)C)n2)c2[nH]c(C)c(C)c2c1

>  <Percent Effect [%]>
5.027

$$$$
>  <molecule>
O=C(NC1CC1)N1CCc2ncnc(-c3ccncc3)c2CC1.O=C(O)C(F)(F)F

>  <Percent Effect [%]>
-17.44

$$$$
>  <molecule>
COCCCN1C(=O)CC[C@H]2CN(c3nc4ccccc4s3)CC[C@H]21

>  <Percent Effect [%]>
-8.201

$$$$
